These data points were gathered from patent US20220033520A1.

- system: human FcRn complex (FCGRT and beta-2 microglobulin), recombinant, purified (human) (UniProt P55899)
- Sequence (P55899 24-297 limits assumed, chain 1 of 2): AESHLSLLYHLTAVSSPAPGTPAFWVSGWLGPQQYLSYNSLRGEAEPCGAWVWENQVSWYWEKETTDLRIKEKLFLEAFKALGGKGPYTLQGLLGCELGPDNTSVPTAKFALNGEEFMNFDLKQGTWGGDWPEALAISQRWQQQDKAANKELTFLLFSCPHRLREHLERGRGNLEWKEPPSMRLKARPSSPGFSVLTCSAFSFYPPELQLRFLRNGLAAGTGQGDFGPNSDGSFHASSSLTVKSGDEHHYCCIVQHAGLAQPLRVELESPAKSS
- Sequence (P61769 21-119 limits assumed, chain 2 of 2, further chain): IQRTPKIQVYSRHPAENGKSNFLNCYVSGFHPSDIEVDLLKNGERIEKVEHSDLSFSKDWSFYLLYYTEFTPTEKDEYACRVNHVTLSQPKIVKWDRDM
- methodDescription: SPR, anti-human Fab capture, pH 6, steady state
The threshold is 7 nM. Values of Kd beneath it are tagged yes (1); values meeting or exceeding it are tagged no (0).

Quick check: Kd of anti-BACE1 hIgG4 antibody, Fc modification Q6 (M252Y/M428L/N434Y/Y436I) (antibody, part only; not given: anti-BACE1 variable domains, not shown: another chain or arm of the molecule) Fc: PAPEFLGGPSVFLFPPKPKDTLYISRTPEVTCVVVDVSQEDPEVQFNWYVDGVEVHNAKTKPREEQFNSTYRVVSVLTVLHQDWLNGKEYKCKVSNKGLPSSIEKTISKAKGQPREPQVYTLPPSQEEMTKNQVSLTCLVKGFYPSDIAVEWESNGQPENNYKTTPPVLDSDGSFFLYSRLTVDKSRWQEGNVFSCSVLHEALHYHITQKSLSLSLGK under 7 nM?
yes (1)

Please answer likewise for anti-Abeta hIgG4 antibody, Fc modification D1 (M252Y/N434Y) (antibody, part only; not given: Anti-Abeta variable domains, not shown: another chain or arm of the molecule) Fc: PAPEFLGGPSVFLFPPKPKDTLYISRTPEVTCVVVDVSQEDPEVQFNWYVDGVEVHNAKTKPREEQFNSTYRVVSVLTVLHQDWLNGKEYKCKVSNKGLPSSIEKTISKAKGQPREPQVYTLPPSQEEMTKNQVSLTCLVKGFYPSDIAVEWESNGQPENNYKTTPPVLDSDGSFFLYSRLTVDKSRWQEGNVFSCSVMHEALHYHYTQKSLSLSLGK
no (0)

How about this binder: anti-Abeta hIgG4 antibody, Fc modification T94 (M252Y/N286E/N434Y) (antibody, part only; not given: anti-Abeta variable domains, not shown: another chain or arm of the molecule) Fc: PAPEFLGGPSVFLFPPKPKDTLYISRTPEVTCVVVDVSQEDPEVQFNWYVDGVEVHEAKTKPREEQFNSTYRVVSVLTVLHQDWLNGKEYKCKVSNKGLPSSIEKTISKAKGQPREPQVYTLPPSQEEMTKNQVSLTCLVKGFYPSDIAVEWESNGQPENNYKTTPPVLDSDGSFFLYSRLTVDKSRWQEGNVFSCSVMHEALHYHYTQKSLSLSLGK
no (0)

Ok, now anti-BACE1 hIgG4 antibody, Fc modification T3 (M252Y/Q311I/N434Y) (antibody, part only; not given: Anti-BACE1 variable domains, not shown: another chain or arm of the molecule) Fc: PAPEFLGGPSVFLFPPKPKDTLYISRTPEVTCVVVDVSQEDPEVQFNWYVDGVEVHNAKTKPREEQFNSTYRVVSVLTVLHIDWLNGKEYKCKVSNKGLPSSIEKTISKAKGQPREPQVYTLPPSQEEMTKNQVSLTCLVKGFYPSDIAVEWESNGQPENNYKTTPPVLDSDGSFFLYSRLTVDKSRWQEGNVFSCSVMHEALHYHYTQKSLSLSLGK
no (0)

Field entry: anti-Abeta hIgG4 antibody, Fc modification Q4 (M252Y/Q311I/M428L/N434Y) (antibody, part only; not given: Anti-Abeta variable domains, not shown: another chain or arm of the molecule) Fc: PAPEFLGGPSVFLFPPKPKDTLYISRTPEVTCVVVDVSQEDPEVQFNWYVDGVEVHNAKTKPREEQFNSTYRVVSVLTVLHIDWLNGKEYKCKVSNKGLPSSIEKTISKAKGQPREPQVYTLPPSQEEMTKNQVSLTCLVKGFYPSDIAVEWESNGQPENNYKTTPPVLDSDGSFFLYSRLTVDKSRWQEGNVFSCSVLHEALHYHYTQKSLSLSLGK
no (0)
